# assay system: Aryl hydrocarbon receptor (Homo sapiens)
# assay comment: ATG_Ahr_CIS: Attagene CIS-FACTORIAL HepG2 Assay for human Aryl Hydrocarbon Receptor (Ahr) (AID 2282930)
# condition description: HepG2 AhR cis-factorial reporter transcription; actives raise or lower the signal
# Description: ATG_CIS is a cell-based, multiplexed-readout assay that uses HepG2, a human liver cell line, with measurements taken at 24 hours after chemical dosing in a 24-well plate.ATG_Ahr_CIS is one of 52 assay component(s) measured or calculated from the ATG_CIS assay. […] This assay endpoint, ATG_Ahr_CIS, was analyzed with bidirectional fitting relative to DMSO as the negative control and baseline of activity. […]
Activity calls are given as the source filed them. The calls were made as follows: active = hit-call score of the fitted dose curve at least 0.9, where 1 is the maximum; inactive = score below 0.9.
Select the matching outcome among active, inactive

Recorded results for 3 molecules are shown here.
# molecule, answer label
measured = [
    ("CC1CCC(C(C)CS)CC1S (stereo unspecified)", "active"),
    ("CC(=O)C=CC1=C(C)CCCC1(C)C", "inactive"),
    ("CCC/C=C/C=O", "inactive"),
]

Field: outcome | Entry: OCc1cccnc1
inactive

Assay result, entry CN(C)CCOCCN(C)C — outcome?
inactive

Status in this test for CN1[C@@H]2CC(OC(=O)[C@H](CO)c3ccccc3)C[C@H]1[C@@H]1O[C@@H]12 (stereo partly specified) ?
inactive

Called result for CC(C)(N)CO
inactive

Hey, what did the test say about Cc1cccc(C)c1C ?
inactive

So what was the verdict on O=C(COc1ccc(Cl)cc1)N1CCN(Cc2ccc3c(c2)OCO3)CC1 in this test?
inactive

State the result this test recorded for CC(=O)[C@H]1CC[C@H]2[C@@H]3CC=C4C[C@@H](O)CC[C@]4(C)[C@H]3CC[C@]12C .
inactive

Assay result, entry CC(C)c1cccc(O)c1 — outcome?
inactive

Answer briefly: the call reported for O=S(=O)(O)c1cccc2c(S(=O)(=O)O)cccc12 in this assay.
inactive

Assay outcome for O=C(O)c1ccc([N+](=O)[O-])cc1 : what was it?
inactive

Could you kindly confirm the outcome this assay logged for CC(C)(C)c1cc(CCC(=O)NN)cc(C(C)(C)C)c1O ?
inactive

Can you look up the reported call for N#Cc1ccc(CC(=NNC(=O)Nc2ccc(OC(F)(F)F)cc2)c2cccc(C(F)(F)F)c2)cc1 for me?
active

So what was the verdict on CCCCC[Si](OCC)(OCC)OCC in this test?
inactive

Check the results log: what was the call for NC(N)=NC(=O)c1nc(Cl)c(N)nc1N ?
inactive

// param item: O=C1C(c2[nH]c3ccc(S(=O)(=O)O)cc3c2O)=Nc2ccc(S(=O)(=O)O)cc21 ; yields the recorded call
active

Outcome? CC1(C)OC[C@@H]2O[C@@]3(C(=O)O)OC(C)(C)O[C@H]3[C@@H]2O1
inactive

How was CCCCCCCCCCCCCC(=O)O classified in this test?
inactive

How did this test come out for C=CCOc1nc(OCC=C)nc(OCC=C)n1 ?
inactive

Hey, what did the test say about CCOC(=S)SSC(=S)OCC ?
inactive

Assay result, entry [Ca+2] — outcome?
inactive

Record request — test call for CC1(C)[C@H]2CC[C@]1(C)[C@H](O)C2
inactive

What classification did Cc1ccc(C=O)s1 end up with in this test?
inactive

Tell me the recorded outcome of this test for CCN(CC)c1ccc2c(-c3ccccc3C(=O)O)c3ccc(=[N+](CC)CC)cc-3oc2c1 .
inactive

# lookup: test call for CCCC[n+]1ccccc1
inactive

Identify the outcome logged in this assay for the molecule shown: O=C[C@@H](O)[C@H](O)[C@H](O)CO
inactive

Field: outcome | Entry: COC(C(=O)O)c1ccccc1 (stereo unspecified)
inactive

I'd appreciate the recorded outcome for CC[Si](OC(C)=O)(OC(C)=O)OC(C)=O from this test.
inactive

Please let me know the test result on file for Nc1cc([N+](=O)[O-])ccc1O .
active

What did this assay record as the result for NCCCCCCN ?
inactive

Please let me know the test result on file for O=C(O)C[C@H](O)C[C@H](O)/C=C/c1c(C2CC2)nc2ccccc2c1-c1ccc(F)cc1 .
inactive

Each recorded value in this set is attributed to PubChem BioAssay (EPA / NIEHS).
